B1: Ribonuclease, P00648 (parent)
chain: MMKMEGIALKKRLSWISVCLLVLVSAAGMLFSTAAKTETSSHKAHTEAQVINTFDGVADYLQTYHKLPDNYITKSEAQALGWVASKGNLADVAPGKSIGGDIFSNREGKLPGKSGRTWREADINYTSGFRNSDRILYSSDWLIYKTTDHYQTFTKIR

Variants of: B1
Details: Bacillus amyloliquefaciens; pH 6.3; 25 °C; Urea; Fluorescence; MES-NaOH 450 mM; reversible: yes; structure 1BNI; whole UniProt chain shown
Use 2 kcal/mol/M as the dividing line for denaturant m value, with the line itself on the t side and lower values as f.

Threshold query (denaturant m value >= 2 kcal/mol/M) on S138A
f

The reported numbers originate from FireProtDB (doi:10.1016/0022-2836(92)90562-x).
